Assay: Inhibition of Mycobacterium tuberculosis DXR using DXP as substrate preincubated for 5 mins
TEST READOUT: pKi
In textbook form, pKi equals minus log to base ten of the concentration in mol/L.

Examples with their reported pKi follow.
O=CN(O)CCC(c1ccc(Cl)c(Cl)c1)P(=O)(O)O (stereo not given) :: 5.92
O=c1ccc(-c2ccccc2)cn1O [1-HYDROXY-5-PHENYLPYRIDIN-2(1H)-ONE] :: 4.66
O=P(O)(O)Cc1ccccn1 :: 5.80
CC(=O)N(O)CCCP(=O)(O)O :: 6.89

Below: the item to evaluate.
In one line, give reported pKi of the entry O=P(O)(O)Cc1ccc(-c2ccccc2)cn1 .
5.49
